Origin of measurements: patent US20230295200A1

Reported Ki values are given for each entry in this list.
Protein target, amino acids: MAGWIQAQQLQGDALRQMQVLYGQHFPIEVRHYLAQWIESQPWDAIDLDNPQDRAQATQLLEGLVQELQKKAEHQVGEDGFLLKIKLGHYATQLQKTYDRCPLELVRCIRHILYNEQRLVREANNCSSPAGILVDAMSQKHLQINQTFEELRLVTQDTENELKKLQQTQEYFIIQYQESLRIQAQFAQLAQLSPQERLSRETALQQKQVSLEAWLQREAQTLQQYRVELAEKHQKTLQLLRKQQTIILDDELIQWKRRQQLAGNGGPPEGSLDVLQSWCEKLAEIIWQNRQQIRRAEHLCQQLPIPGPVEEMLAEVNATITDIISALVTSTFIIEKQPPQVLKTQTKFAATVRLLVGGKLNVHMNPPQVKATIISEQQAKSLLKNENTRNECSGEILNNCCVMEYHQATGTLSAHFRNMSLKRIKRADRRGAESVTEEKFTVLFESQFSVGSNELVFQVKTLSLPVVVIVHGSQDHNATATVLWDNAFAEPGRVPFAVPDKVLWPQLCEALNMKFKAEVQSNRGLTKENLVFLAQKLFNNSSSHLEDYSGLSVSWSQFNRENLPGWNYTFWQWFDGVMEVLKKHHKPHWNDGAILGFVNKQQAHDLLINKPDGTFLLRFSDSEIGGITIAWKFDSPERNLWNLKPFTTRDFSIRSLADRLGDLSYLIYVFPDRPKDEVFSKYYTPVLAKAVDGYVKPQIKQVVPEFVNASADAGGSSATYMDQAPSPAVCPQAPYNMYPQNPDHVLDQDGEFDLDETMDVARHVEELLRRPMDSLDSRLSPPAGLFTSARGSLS
Measure Name: Ki

# Molecule, Measure Name, Value Observed
measured = [
    ("CC(=O)N1CC[C@H]2CC[C@@H](C(=O)Nc3ccc(I)cc3)N2C(=O)[C@@H](NC(=O)/C=C/c2ccc(C(F)(F)P(=O)(O)O)cc2)C1", "Ki", "> 10 µM"),
    ("CN(C)C(=O)CCN(C(=O)[C@@H]1CCCN1C(=O)[C@@H](NC(=O)c1cc2cc(C(F)(F)P(=O)(O)O)ccc2s1)C(C)(C)C)c1cccc(-c2nccs2)c1", "Ki", "> 10 µM"),
    ("CC(C)(C)[C@H](NC(=O)c1cc2cc(C(F)(F)P(=O)(O)O)ccc2s1)C(=O)N1CCC[C@H]1C(=O)N1CCOC(c2ccccc2F)C1 (some centres unmarked)", "Ki", "> 10 µM"),
    ("CC(=O)N1CCN(C(=O)[C@@H](NC(=O)c2cc3cc(C(F)(F)P(=O)(O)O)ccc3s2)C(C)(C)C)[C@H](C(=O)N2CC[C@@H](c3ccccc3)C2)C1", "Ki", "> 10 µM"),
    ("CNC(=O)c1ccc(N(C(=O)[C@@H]2CCCN2C(=O)[C@@H](NC(=O)c2cc3cc(C(F)(F)P(=O)(O)O)ccc3s2)C(C)(C)C)c2ccc(Cl)cc2)cc1", "Ki", "1 to 10 µM"),
    ("CCCCC(=O)N1CC[C@H]2CN(C(=O)[C@@H]3CCCN3C(=O)[C@@H](NC(=O)c3cc4cc(C(F)(F)P(=O)(O)O)ccc4s3)C(C)(C)C)C[C@H]21", "Ki", "> 10 µM"),
    ("CC(C)(C)[C@H](NC(=O)c1cc2cc(C(F)(F)P(=O)(O)O)ccc2s1)C(=O)N1CCC[C@H]1C(=O)Nc1ncc(-c2ccc(Br)cc2)s1", "Ki", "1 to 10 µM"),
    ("CC(C)(C)[C@H](NC(=O)c1cc2cc(C(F)(F)P(=O)(O)O)ccc2s1)C(=O)N1C[C@@H](Oc2ccccc2)C[C@H]1C(=O)Nc1ncc(-c2ccccc2)s1", "Ki", "1 to 10 µM"),
    ("CC(C)(O)[C@H](NC(=O)c1cc2cc(C(F)(F)P(=O)(O)O)ccc2s1)C(=O)N1CCC[C@H]1C(=O)N1CCO[C@H](c2ccccc2)C1", "Ki", "> 10 µM"),
    ("CC(C)(C)[C@H](NC(=O)c1cc2cc(C(F)(F)P(=O)(O)O)ccc2s1)C(=O)N1CCC[C@H]1C(=O)N(Cc1ccccc1)C1CCCCC1", "Ki", "> 10 µM"),
    ("C#CC[C@H](NC(=O)c1cc2cc(C(F)(F)P(=O)(O)O)ccc2s1)C(=O)N1CCC[C@H]1C(=O)N1CCO[C@H](c2ccccc2)C1", "Ki", "> 10 µM"),
]
